# target-system: Alpha-bungarotoxin (Bungarus multicinctus) (UniProt P60615)
# Sequence (P60615 whole entry, looked up): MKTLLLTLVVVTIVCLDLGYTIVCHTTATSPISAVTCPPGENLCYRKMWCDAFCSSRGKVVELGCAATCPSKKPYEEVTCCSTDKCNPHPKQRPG
# assay-name: alpha-bungarotoxin binders on microarray, profiling panel, artefact control for SMM control protein annotation, biochemical, small-molecule microarray, Alexa647 label, 635/667 nm fluorescence (AID 1117)
# run-conditions: alpha-BTX-A647 binding fluorescence, higher = more signal
composite z-score listing for selected compounds.

smiles-structure: COc1ccc(C#Cc2ccc3c(c2)[C@]2(C(=O)N3)[C@H](c3ccccc3OCCO)N3[C@H](c4ccccc4)[C@H](c4ccccc4)OC(=O)[C@H]3[C@@H]2C(=O)Nc2nc3ccccc3s2)cc1
target-system: Alpha-bungarotoxin (Bungarus multicinctus) (UniProt P60615)
composite z-score: 1.62

composite z-score reading for "C=CCOC(=O)[C@H]1[C@@H]2C(=O)O[C@@H](c3ccccc3)[C@@H](c3ccccc3)N2[C@@H](c2ccc(OCCOC(=O)[C@@H]3C[C@@H]4C(=O)N[C@@H](CC(C)C)C(=O)N4[C@@H]3c3ccc(O)cc3)cc2)[C@]12C(=O)Nc1ccccc12" : 1.6

Taken from PubChem BioAssay.
